Data origin: patent US6586468B1

Target: EP4 (Mus musculus, UniProt P32240)
Construct: expressed in transfected cells; host or cells: CHO cells (membrane fraction)
Sequence (P32240 whole entry): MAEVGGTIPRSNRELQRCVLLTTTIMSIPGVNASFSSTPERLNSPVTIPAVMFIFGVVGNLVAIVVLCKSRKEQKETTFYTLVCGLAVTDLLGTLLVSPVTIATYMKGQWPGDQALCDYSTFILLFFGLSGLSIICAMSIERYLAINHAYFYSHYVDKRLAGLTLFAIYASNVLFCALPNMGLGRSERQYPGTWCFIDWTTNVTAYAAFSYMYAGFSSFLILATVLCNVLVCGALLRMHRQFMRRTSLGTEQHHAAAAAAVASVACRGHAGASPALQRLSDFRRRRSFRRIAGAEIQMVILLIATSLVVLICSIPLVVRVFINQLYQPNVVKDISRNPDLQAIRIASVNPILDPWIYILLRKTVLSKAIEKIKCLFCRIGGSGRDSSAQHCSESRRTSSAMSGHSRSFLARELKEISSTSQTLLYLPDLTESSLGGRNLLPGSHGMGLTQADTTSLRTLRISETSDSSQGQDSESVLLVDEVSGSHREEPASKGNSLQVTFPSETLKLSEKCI
Test: Binding assay using expression CHO cell of prostanoid receptor subtype, [3H]-PGE2 binding inhibition (EP4)
Conditions: membrane fraction of CHO cells expressing mouse EP4; [3H]-PGE2 2.5 nM; Ki=IC50/(1+([C]/Kd)); read-out: Dissociation Constant Ki (μM) EP4
Method: (i) Binding assay using Expression cell of prostanoids receptor subtype […] The standard assay mixture containing membrane fraction (0.5 mg/ml) and [^3H]-PGE2 in a final volume of 200 μl was incubated for 1 hour at room temperature. […] The radioactivity associated with the filter was measured by liquid scintillation counting. Kd and Bmax values were determined from Scatchard plots [Ann. […] Non-specific binding was calculated as the binding in the presence of an excess (2.5 μM) of unlabeled PGE2. […]
observation-type: Ki (µM)

- molecule: "Cc1cc(C[C@H](O)/C=C/[C@H]2[C@H](O)CC(=O)[C@@H]2CCCCCCC(=O)O)ccc1O"
  Ki, µM: 0.003

[A] COc1ccc(C[C@H](O)/C=C/[C@H]2[C@H](O)CC(=O)[C@@H]2C/C=C\CCCC(=O)O)cc1 [reference compound]
[B] CCOCc1cccc(CC(O)/C=C/[C@H]2[C@H](O)CC(=O)[C@@H]2CCc2ccc(C(=O)O)cc2)c1 (stereo partly shown)
Exercise: Between A and B , which one has the lower reported Ki value? # reply format: chosen label
Key: B
(B: 0.008 µM, A: 0.067 µM)
